Entry source: ChEMBL document CHEMBL1201862

System: RPMI-8226
Experiment: NCI tumour cell line growth inhibition, 48 h
Active and inactive are the calls of the source. Cut-off read from the data, not from the text of the source: active = GI50 up to about 1.1 µM and inactive = higher.
quantity_name: GI50

# molecule, quantity_name, result
measured = [
    ("CCOC(=O)c1nc2ccccc2nc1Oc1cc(OC)c(OC)c(OC)c1", "GI50", "> 100 µM (inactive)"),
    ("CC(=O)Nc1ccc(-c2nc3ccccc3s2)cc1", "GI50", "> 100 µM (inactive)"),
    ("Cc1ncc([N+](=O)[O-])n1CCNCCCn1ccnc1[N+](=O)[O-]", "GI50", "> 100 µM (inactive)"),
    ("CN(N=O)C(=O)NNC(=O)N(C)N=O", "GI50", "32.7 µM (inactive)"),
    ("NCCCc1c(-c2ccccc2)[nH]c(N)nc1=O", "GI50", "> 100 µM (inactive)"),
    ("O=C1C2Cc3ccccc3CN2C(=O)N1CN1CCCCC1 (stereo not given)", "GI50", "31.1 µM (inactive)"),
    ("COc1ccc(C2CCc3nc4nc(N)nc(N)c4cc3C2)cc1 (stereo not given)", "GI50", "32.6 µM (inactive)"),
    ("COC1=CC(=O)C2C(C1=O)C(c1ccc(Cl)cc1)[C@@H]2C (stereo not given in full)", "GI50", "39.7 µM (inactive)"),
    ("CC[C@H]1C=CCC[C@@]2(C[C@@H]3CC[C@H]4[C@H](C(=O)OCCCCCCCCCCCCCCCC(=O)N(CCCN)C[C@@H](O)CCN)[C@]5(CCC[C@@H](C)O5)NC(=[N+]34)N2)O1", "GI50", "0.177 µM (active)"),
    ("C1=C(c2ccccc2)Nc2nnnn2C1c1ccccc1 (stereo not given)", "GI50", "< 0.01 µM (active)"),
]

* * *

Below is a list of entries, each paired with its recorded GI50 value.
System: SNB-75
Assay: NCI tumour cell line growth inhibition, 48 h
Active and inactive are the calls of the source. No stated cut-off is given here; in the data, active = GI50 up to about 1.1 µM and inactive = higher.

# smiles_code, GI50
records = [
    ("CC1(C)CC(=O)C/C(=N/c2ccc([N+](=O)[O-])cc2)C1", "> 100 µM (inactive)"),
    ("COc1cc2cccc(/N=C/c3c(Br)ccc(OC)c3OC(C)C)c2cc1OC", "24.4 µM (inactive)"),
    ("COc1cc(Nc2nc3ccc(C(F)(F)F)cc3nc2-c2ccccc2)cc(OC)c1OC", "> 100 µM (inactive)"),
    ("Cc1c(C)c(S(=O)(=O)N(CCCCCCN)OCCCN)c(C)c2c1OC(C)(C)CC2", "2.99 µM (inactive)"),
    ("Oc1c2cc(Br)cc1CCc1cc(Br)cc(c1O)CC2", "21.6 µM (inactive)"),
    ("COc1cc2c(oc(=O)c3c4occc4cc(OC)c23)c2cccc(O)c12", "83.6 µM (inactive)"),
]

* * *

Test system: CAKI-1
Assay: NCI tumour cell line growth inhibition, 48 h
Calls of active or inactive are those of the source. No stated cut-off is given here; in the data, active = GI50 up to about 1.1 µM and inactive = higher.
Classes used: yes (1) (active), no (0) (inactive)

# molecule, assigned_label
data = [
    ("Cc1cccc(/C=N/NC(=S)Nc2ccc(Cl)cc2)n1", "no (0)"),
    ("OC12CC3c4ccccc4NC3C3Oc4cccc5c4C31CCN(CC1CC1)C2C5 (centres undefined)", "no (0)"),
    ("CCOC(=O)c1nc2ccccc2nc1Oc1cc(OC)c(OC)c(OC)c1", "no (0)"),
    ("CC(C)(C)NN=C1C(C)(C)C(=NNC(C)(C)C)C1(C)C", "no (0)"),
    ("CC1=NN(c2nc(N)nc(COCc3nc(N)nc(N4N=C(C)CC4(C)C)n3)n2)C(C)(C)C1", "no (0)"),
    ("COc1cccc2c1C(=O)c1c(O)c3c(c(O)c1C2=O)C[C@@](O)(/C(C)=N\\O)C[C@@H]3OC1CC(N)C(O)C(C)O1 (some centres undefined)", "no (0)"),
    ("O=[N+]([O-])/C(C(Cl)=C(Cl)Cl)=C(\\Nc1cccc2cccnc12)Sc1ccccc1", "no (0)"),
    ("Cc1ccc2c(c1)Nc1cc(C(F)(F)F)ccc1[PH]2=O (centres undefined)", "no (0)"),
    ("O=c1[nH]c2nc3ccccc3c(=O)n2/c1=C/c1cccs1", "no (0)"),
    ("c1cc2c(cc1[C@@H]1OC[C@@H]3[C@H]1CO[C@H]3c1ccc3c(c1)OCO3)OCO2", "no (0)"),
    ("COc1ccc2c(c1)C1=NCCN(C)c3ccc([N+](=O)[O-])c(c31)N2", "yes (1)"),
    ("CC(C)N(C(C)C)S(=O)(=O)C[C@]12CC[C@H](CC13OCC(CS(=O)(=O)c1ccccc1)O3)C2(C)C (some centres undefined)", "no (0)"),
    ("C=CCOC(=O)CCCCCCCCCCCCCCCOC(=O)c1c(CCC[C@@H](C)O[Si](C)(C)C(C)(C)C)nc([O-])[n+]2c1CC[C@H]2CC1(CC/C=C\\[C@H](CC)O[Si](C(C)C)(C(C)C)C(C)C)OCCO1", "no (0)"),
    ("C[N+](C)(C)CC1CCCC/C1=N\\OC(=O)c1ccccc1 (centres undefined)", "no (0)"),
    ("O=C(CN1CCOCC1)c1ccc2c(c1)oc(=O)n2CCN1CCCC1", "no (0)"),
    ("COc1ccc2c(c1)CN1C(=N2)CSC1c1c(Cl)cccc1[N+](=O)[O-] (centres undefined)", "no (0)"),
    ("CCOC(=O)C(C)(c1c(C)[nH]c2ccccc12)c1c(C)[nH]c2ccccc12", "no (0)"),
    ("O=C1C(C(O)(C(F)(F)F)C(F)(F)F)CCC1C(O)(C(F)(F)F)C(F)(F)F (centres undefined)", "yes (1)"),
    ("COc1ccc(/C=C\\c2cc(OC)c(OC(C)=O)c(OC)c2)cc1", "no (0)"),
]

* * *

Below is a list of entries, each paired with its recorded GI50 value.
Test system: OVCAR-3
Experiment: NCI tumour cell line growth inhibition, 48 h
The source made the active and inactive calls. Rule as the data show it: active = GI50 up to about 1.1 µM and inactive = higher.
quantity_name: GI50

# compound, result
measured = [
    ("O=C1C(c2cnc3ccccc3n2)=C(O)c2ccccc21", "> 100 µM (inactive)"),
    ("CCn1ncc2c1nc(-c1ccccc1)c[n+]2[O-]", "> 100 µM (inactive)"),
    ("Cc1nnc2sc(NN)nn12", "> 100 µM (inactive)"),
    ("C=C/C(C)=C/[C@H](C)C(=O)C[C@H](O)CC1CC(=O)NC(=O)C1", "49.2 µM (inactive)"),
    ("C[C@]12CC/C(=N\\OC(=O)Nc3ccccc3)C=C1CC[C@@H]1C2CC[C@@]2(C)C1CC[C@@H]2OC(=O)Nc1ccccc1 (stereo not given in full)", "> 100 µM (inactive)"),
    ("Cc1ccc(S(=O)(=O)N/N=C2/CC3CCC4CC2CC34)cc1 (stereo not given)", "> 100 µM (inactive)"),
    ("CC(=O)NCC1(c2ccccc2)CCN(CC2COc3ccccc3O2)CC1 (stereo not given)", "> 100 µM (inactive)"),
    ("CC(NC(=O)c1ccc(Cl)c(Cl)c1)c1ccc(-c2ccccc2)cc1 (stereo not given)", "20.8 µM (inactive)"),
    ("Cc1ccc(/C=N/NC2=NCCN2)s1", "> 100 µM (inactive)"),
    ("c1ccc(COc2ncccc2C2SCCCS2)cc1", "> 100 µM (inactive)"),
    ("COCCNC1CCC(=O)c2[nH]c3ccccc3c21 (stereo not given)", "40.2 µM (inactive)"),
    ("Cc1c(Cl)c(=O)oc2cc(OCC(O)COC(C)C)ccc12 (stereo not given)", "97.5 µM (inactive)"),
    ("Cc1cc(C)c2c(-c3ccccc3)cc(=O)[nH]c2c1", "> 100 µM (inactive)"),
    ("C/C([O-])=C(/c1nc(-c2ccc([N+](=O)[O-])o2)no1)[n+]1cc(C)ccc1C", "19.6 µM (inactive)"),
    ("CC(C)=CCc1cc(/C=C/C(=O)O)cc(CC=C(C)C)c1O [ARTEPILLIN]", "> 100 µM (inactive)"),
]

* * *

The following compounds are shown together with reported GI50 values.
System: COLO 205
Test: NCI tumour cell line growth inhibition, 48 h
Activity calls are given as the source filed them. Rule as the data show it: active = GI50 up to about 1.1 µM and inactive = higher.
quantity_name: GI50

# compound, target_of_assay, result
measured = [
    ("O=C1C(c2c(O)[nH]c3ccc(S(=O)(=O)O)cc23)=Nc2ccccc21", "COLO 205", "> 100 µM (inactive)"),
    ("O=C1N(c2ccccc2)C2(c3ccccc3)CC3CCCC13S2 (centres undefined)", "COLO 205", "43 µM (inactive)"),
    ("O=C(O)CSCc1cc2c(O)c(c1)Cc1cc(CSCC(=O)O)cc(c1O)Cc1cc(CSCC(=O)O)cc(c1O)Cc1cc(CSCC(=O)O)cc(c1O)C2", "COLO 205", "> 100 µM (inactive)"),
    ("Clc1ccc(OCc2nnc(CCCCCCCCc3nnc(COc4ccc(Cl)cc4Cl)n3Nc3ccccc3)n2Nc2ccccc2)c(Cl)c1", "COLO 205", "1.5 µM (inactive)"),
    ("COc1cccc(/C=C2\\CCCc3ccccc3C2=O)c1", "COLO 205", "17.8 µM (inactive)"),
    ("COP(=O)(OC)C(Cc1cn(C(C)=O)c2ccccc12)C(=O)O (centres undefined)", "COLO 205", "> 100 µM (inactive)"),
    ("O=C(O)CC1OCC=C2CN3CCC45C6=CC(=O)C(O)=C([N+](=O)[O-])C6=NC4C1C2CC35 (centres undefined)", "COLO 205", "> 100 µM (inactive)"),
    ("CC1=NC(=Cc2cc(Br)cc(Br)c2)C(=O)N1n1c(-c2ccccc2)nc2ccccc2c1=O", "COLO 205", "> 100 µM (inactive)"),
    ("O=C1c2c(Cl)c(Cl)c(Cl)c(Cl)c2C(=O)N1CCN(c1c(Cl)ssc1=O)c1c(Cl)ssc1=O", "COLO 205", "18.2 µM (inactive)"),
]
